- target.desc: TLK1 (human)
- test: KINOMEscan competition binding
- assay.context: compound 10.0 µM
measurement.kind: kinase still bound, per cent of control (%)
Numbers only, in %.

A selection of reference data follows.
[[record]]
smiles_string = "N=C1NC(=O)/C(=C/c2ccc(-c3ccc(C(=O)Nc4ccc(N5CCNCC5)cc4)cc3O)o2)S1"
units_text = "%"
obs_value = 14

[[record]]
smiles_string = "N=C1NC(=O)/C(=C/c2ccc(-c3cccc4cc[nH]c34)o2)S1"
units_text = "%"
obs_value = 22

[[record]]
smiles_string = "CN1CCN(c2ccc(C(=O)Nc3ncc4c(n3)N(C)c3ccccc3C(=O)N4C)cc2)CC1"
units_text = "%"
obs_value = 86

[[record]]
smiles_string = "COc1cc(N2CCN(C)CC2)ccc1Nc1ncc2c(n1)N(C)c1ccccc1N(C)C2=O"
units_text = "%"
obs_value = 97


State the recorded kinase still bound, per cent of control for this entry: COc1cc(N2CCN(C)CC2)ccc1Nc1ncc2c(n1)N(C)c1sccc1C(=O)N2C
74

----------
- target.desc: PKN1 (human) (UniProt Q16512)
- Sequence (Q16512 whole entry, looked up): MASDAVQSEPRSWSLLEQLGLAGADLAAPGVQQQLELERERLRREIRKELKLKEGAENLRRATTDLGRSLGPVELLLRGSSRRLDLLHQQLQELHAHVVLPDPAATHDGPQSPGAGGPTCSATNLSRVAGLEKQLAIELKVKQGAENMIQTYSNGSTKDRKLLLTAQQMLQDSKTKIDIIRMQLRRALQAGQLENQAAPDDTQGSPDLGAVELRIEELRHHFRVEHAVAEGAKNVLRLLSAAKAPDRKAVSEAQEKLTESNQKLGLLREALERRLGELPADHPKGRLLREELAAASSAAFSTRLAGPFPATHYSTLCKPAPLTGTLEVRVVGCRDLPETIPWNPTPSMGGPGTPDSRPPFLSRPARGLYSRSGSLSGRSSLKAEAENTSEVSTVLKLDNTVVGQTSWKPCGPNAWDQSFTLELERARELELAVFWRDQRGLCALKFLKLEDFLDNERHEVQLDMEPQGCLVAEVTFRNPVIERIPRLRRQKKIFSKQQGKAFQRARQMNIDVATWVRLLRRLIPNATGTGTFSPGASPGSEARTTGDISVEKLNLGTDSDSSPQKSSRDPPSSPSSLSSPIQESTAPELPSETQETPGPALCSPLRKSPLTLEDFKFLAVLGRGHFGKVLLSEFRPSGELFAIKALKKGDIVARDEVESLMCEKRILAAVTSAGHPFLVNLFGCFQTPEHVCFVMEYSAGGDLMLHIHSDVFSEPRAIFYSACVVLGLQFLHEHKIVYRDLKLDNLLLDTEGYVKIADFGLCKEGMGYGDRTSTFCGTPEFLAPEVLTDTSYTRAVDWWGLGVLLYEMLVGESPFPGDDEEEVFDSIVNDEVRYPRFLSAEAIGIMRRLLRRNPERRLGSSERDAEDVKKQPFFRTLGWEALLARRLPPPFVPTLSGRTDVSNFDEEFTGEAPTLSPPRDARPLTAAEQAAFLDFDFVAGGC
- test: KINOMEscan competition binding
- assay.context: compound 10.0 µM
Returns: string. Value is true if measured kinase still bound, per cent of control is below 30%, and false if it is greater than or equal to it.

Answered cases to consult:
[[record]]
smiles_string = "COc1cc(N2CCN(C)CC2)ccc1Nc1ncc2c(n1)N(C)c1ccccc1N(C)C2=O"
target_desc = "PKN1 (human) (UniProt Q16512)"
qualitative_label = "false"

[[record]]
smiles_string = "CN1CCN(c2ccc(C(=O)Nc3ncc4c(n3)N(C)c3ccccc3C(=O)N4C)cc2)CC1"
target_desc = "PKN1 (human) (UniProt Q16512)"
qualitative_label = "false"

[[record]]
smiles_string = "O=C1NC(=O)/C(=C/c2c[nH]c(=O)c(-c3ccc(N4CCNCC4)nc3)c2)S1"
target_desc = "PKN1 (human) (UniProt Q16512)"
qualitative_label = "true"


Okay, now this compound:
Does COc1cc(C(N)=O)ccc1Nc1ncc2c(n1)N(C1CCCC1)[C@@H]1CCC[C@@H]1C(=O)N2C have kinase still bound, per cent of control strictly under 30%?
true

----------
- target.desc: MAPK13 (human) (UniProt O15264)
- Sequence (O15264 whole entry, looked up): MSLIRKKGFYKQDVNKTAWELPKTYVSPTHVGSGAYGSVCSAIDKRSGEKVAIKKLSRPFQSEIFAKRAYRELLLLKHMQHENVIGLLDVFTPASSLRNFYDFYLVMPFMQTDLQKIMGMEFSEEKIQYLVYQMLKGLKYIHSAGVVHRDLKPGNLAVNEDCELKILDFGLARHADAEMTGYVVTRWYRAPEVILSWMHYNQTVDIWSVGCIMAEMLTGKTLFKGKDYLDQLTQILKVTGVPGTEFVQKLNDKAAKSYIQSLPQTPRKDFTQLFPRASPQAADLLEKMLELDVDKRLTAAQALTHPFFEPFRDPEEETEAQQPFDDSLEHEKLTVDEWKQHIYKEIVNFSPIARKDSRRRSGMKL
- test: KINOMEscan competition binding
- assay.context: compound 10.0 µM
Please respond with reported kinase still bound, per cent of control for every item in the list.

# example entries with known answers
[[record]]
smiles_string = "CN1CCN(c2ccc(C(=O)Nc3ncc4c(n3)N(C)c3ccccc3C(=O)N4C)cc2)CC1"
measurement_kind = "kinase still bound, per cent of control"
obs_value = "90%"

[[record]]
smiles_string = "O=C1NC(=O)/C(=C/c2c[nH]c(=O)c(-c3ccc(N4CCNCC4)nc3)c2)S1"
measurement_kind = "kinase still bound, per cent of control"
obs_value = "100%"


Value sought for every listed compound: kinase still bound, per cent of control.
1. COc1cc(N2CCN(C)CC2)ccc1Nc1ncc2c(n1)Nc1ccccc1NC2=O
2. COc1cc(N2CCN(C)CC2)ccc1Nc1ncc2c(n1)N(C)c1ccccc1N(C)C2=O
3. CN1C(=O)c2ccccc2N(C)c2nc(Nc3ccc(N4CCC(O)CC4)cc3)ncc21
4. COc1cc(N2CCN(C)CC2)ccc1Nc1ncc2c(n1)N(C)c1sccc1C(=O)N2C

1. 100%
2. 100%
3. 100%
4. 71%

Items follow; give kinase still bound, per cent of control for each.
1. CN1C(=O)c2ccccc2N(C)c2nc(NS(=O)(=O)c3ccc(N)cc3)ncc21
2. COc1cc(N2CCC(O)CC2)ccc1Nc1ncc2c(n1)N1CCc3cccc(c31)C(=O)N2C

1: 90%; 2: 87%

----------
- target.desc: EPHB1 (human) (UniProt P54762)
- Sequence (P54762 whole entry, looked up): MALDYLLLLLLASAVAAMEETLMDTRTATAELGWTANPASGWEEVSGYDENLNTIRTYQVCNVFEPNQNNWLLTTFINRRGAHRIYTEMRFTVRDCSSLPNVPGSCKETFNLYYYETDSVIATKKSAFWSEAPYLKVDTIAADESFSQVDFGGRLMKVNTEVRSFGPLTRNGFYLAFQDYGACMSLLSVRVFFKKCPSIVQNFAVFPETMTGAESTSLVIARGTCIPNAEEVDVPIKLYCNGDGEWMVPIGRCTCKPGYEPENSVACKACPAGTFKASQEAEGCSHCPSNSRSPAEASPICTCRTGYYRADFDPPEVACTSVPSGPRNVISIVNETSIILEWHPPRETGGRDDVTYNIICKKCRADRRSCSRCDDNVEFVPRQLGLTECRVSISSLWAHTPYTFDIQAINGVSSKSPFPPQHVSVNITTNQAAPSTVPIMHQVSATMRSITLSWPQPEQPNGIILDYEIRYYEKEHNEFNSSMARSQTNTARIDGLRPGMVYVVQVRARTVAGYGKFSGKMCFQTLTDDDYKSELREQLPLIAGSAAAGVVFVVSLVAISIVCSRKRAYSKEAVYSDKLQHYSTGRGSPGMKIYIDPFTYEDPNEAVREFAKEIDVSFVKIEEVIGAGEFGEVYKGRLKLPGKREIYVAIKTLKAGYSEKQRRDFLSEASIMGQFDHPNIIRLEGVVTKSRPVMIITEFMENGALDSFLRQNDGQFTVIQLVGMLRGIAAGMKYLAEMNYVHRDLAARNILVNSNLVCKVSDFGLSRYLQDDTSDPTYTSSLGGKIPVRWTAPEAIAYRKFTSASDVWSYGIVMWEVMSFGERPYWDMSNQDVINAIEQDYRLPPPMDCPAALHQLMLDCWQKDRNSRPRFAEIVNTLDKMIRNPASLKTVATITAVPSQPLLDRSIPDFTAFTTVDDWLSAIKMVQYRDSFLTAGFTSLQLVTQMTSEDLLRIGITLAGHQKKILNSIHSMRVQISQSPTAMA
- test: KINOMEscan competition binding
- assay.context: compound 10.0 µM
measurement.kind: kinase still bound, per cent of control (%)
One number for each entry, in %.

Example results:
[[record]]
smiles_string = "CN1C(=O)c2ccccc2N(C)c2nc(NS(=O)(=O)c3ccc(N)cc3)ncc21"
obs_value = 100

[[record]]
smiles_string = "CN1CCN(c2ccc(C(=O)Nc3ncc4c(n3)N(C)c3ccccc3C(=O)N4C)cc2)CC1"
obs_value = 100


Could you now look at the following molecule, please?
Need kinase still bound, per cent of control, item COc1cc(N2CCN(C)CC2)ccc1Nc1ncc2c(n1)N(C)c1sccc1C(=O)N2C
88

----------
- target.desc: PIM2 (human)
- test: KINOMEscan competition binding
- assay.context: compound 10.0 µM
measurement.kind: kinase still bound, per cent of control (%)
Answers are plain numbers, in %.

[[record]]
smiles_string = "O=C1NC(=S)S/C1=C\\c1ccc(-c2cccc3ccccc23)o1"
obs_value = 0.8

[[record]]
smiles_string = "N=C1NC(=O)/C(=C/c2c[nH]c(=O)c(-c3ccc(S(N)(=O)=O)cc3)c2)S1"
obs_value = 4.8


Short answer please: kinase still bound, per cent of control, PIM2 (human), entry N=C1NC(=O)/C(=C/c2ccc(-c3ccc4c(C(=O)Nc5ccc(N6CCNCC6)cc5)cccc4c3)o2)S1
0.65

----------
- target.desc: RPS6KA5 KD2 (human) (UniProt O75582)
- Sequence (O75582 whole entry, looked up): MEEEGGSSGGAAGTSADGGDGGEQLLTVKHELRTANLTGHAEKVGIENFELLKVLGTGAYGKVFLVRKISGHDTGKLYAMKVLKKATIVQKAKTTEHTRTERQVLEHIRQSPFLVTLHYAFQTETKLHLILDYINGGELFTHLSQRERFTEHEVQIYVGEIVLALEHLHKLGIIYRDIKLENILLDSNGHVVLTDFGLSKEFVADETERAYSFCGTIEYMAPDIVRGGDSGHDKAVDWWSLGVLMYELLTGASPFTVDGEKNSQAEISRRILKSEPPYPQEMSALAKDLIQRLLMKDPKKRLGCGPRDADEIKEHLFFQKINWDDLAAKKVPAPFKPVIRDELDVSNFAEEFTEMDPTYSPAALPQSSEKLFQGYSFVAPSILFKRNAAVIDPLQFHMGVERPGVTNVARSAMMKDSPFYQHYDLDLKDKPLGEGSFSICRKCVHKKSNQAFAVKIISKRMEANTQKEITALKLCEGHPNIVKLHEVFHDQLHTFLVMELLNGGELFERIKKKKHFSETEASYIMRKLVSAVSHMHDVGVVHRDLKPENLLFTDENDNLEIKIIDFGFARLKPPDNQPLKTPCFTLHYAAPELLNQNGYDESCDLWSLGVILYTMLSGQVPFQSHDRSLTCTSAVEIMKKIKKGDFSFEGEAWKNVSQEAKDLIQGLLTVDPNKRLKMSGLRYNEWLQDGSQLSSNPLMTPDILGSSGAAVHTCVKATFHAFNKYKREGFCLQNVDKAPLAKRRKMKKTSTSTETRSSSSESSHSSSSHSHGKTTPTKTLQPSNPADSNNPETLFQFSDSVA
- test: KINOMEscan competition binding
- assay.context: compound 10.0 µM
measurement.kind: kinase still bound, per cent of control (%)
One number for each entry, in %.

Example compounds with recorded kinase still bound, per cent of control:
[[record]]
smiles_string = "CS(=O)(=O)Nc1ccc(-c2cc(/C=C3\\SC(=N)NC3=O)c[nH]c2=O)cc1"
obs_value = 0.15

[[record]]
smiles_string = "COc1cc(N2CCC(O)CC2)ccc1Nc1ncc2c(n1)N1CCc3cccc(c31)C(=O)N2C"
obs_value = 62

[[record]]
smiles_string = "O=C1NC(=O)/C(=C/c2c[nH]c(=O)c(-c3ccc(N4CCNCC4)nc3)c2)S1"
obs_value = 59

[[record]]
smiles_string = "CN1C(=O)c2ccccc2N(C)c2nc(Nc3ccc(N4CCC(O)CC4)cc3)ncc21"
obs_value = 100


Below are 3 compounds. Give each one its kinase still bound, per cent of control.
1. CN1CCN(c2ccc(C(=O)Nc3ncc4c(n3)N(C)c3ccccc3C(=O)N4C)cc2)CC1
2. COc1cc(N2CCN(C)CC2)ccc1Nc1ncc2c(n1)N(C)c1sccc1C(=O)N2C
3. O=C1NC(=O)/C(=C/c2c[nH]c(=O)c(-c3ccc(C(=O)Nc4ccc(N5CCNCC5)cc4)cc3)c2)S1

1. 100
2. 57
3. 19

----------
- target.desc: PIM1 (human)
- test: KINOMEscan competition binding
- assay.context: compound 10.0 µM
Entries whose kinase still bound, per cent of control is below 5% take YES; entries at or above 5% take NO.

[[record]]
smiles_string = "N=C1NC(=O)/C(=C/c2ccc(-c3ccc(C(=O)Nc4ccc(N5CCNCC5)cc4)cc3O)o2)S1"
qualitative_label = "NO"

[[record]]
smiles_string = "N=C1NC(=O)/C(=C/c2ccc(-c3ccc(F)cc3)o2)S1"
qualitative_label = "YES"

[[record]]
smiles_string = "O=C1NC(=S)S/C1=C\\c1ccc(-c2cncc3ccccc23)o1"
qualitative_label = "YES"

[[record]]
smiles_string = "Nc1cccc(-c2cc(/C=C3\\SC(=O)NC3=O)c[nH]c2=O)c1"
qualitative_label = "YES"

[[record]]
smiles_string = "N=C1NC(=O)/C(=C/c2ccc(-c3ccc(C(N)=O)cc3O)o2)S1"
qualitative_label = "YES"


Hello, is kinase still bound, per cent of control of the following compound strictly smaller than 5%? O=C1NC(=O)/C(=C/c2ccc(-c3ccc(C(=O)Nc4ccc(N5CCNCC5)cc4)cc3)o2)S1
YES

Hello, I'm reviewing records and need to know if kinase still bound, per cent of control of CSC1=NC(=O)/C(=C/c2ccc(-c3ccc(S(N)(=O)=O)cc3)o2)S1 is below 5%. Could you check?
YES

Lab log: compare recorded kinase still bound, per cent of control with 5%; is it strictly lower for N=C1NC(=O)/C(=C/c2ccc(-c3cncc4ccccc34)o2)S1 ?
YES

Strictly below 5%: is that where kinase still bound, per cent of control of N=C1NC(=O)/C(=C/c2c[nH]c(=O)c(-c3ccc4cc[nH]c4c3)c2)S1 sits?
NO

Problem: For the compound O=C1NC(=O)/C(=C/c2c[nH]c(=O)c(-c3ccc(C(=O)Nc4ccc(N5CCNCC5)cc4)cc3)c2)S1 , is kinase still bound, per cent of control under 5%?
NO

Lab log: compare recorded kinase still bound, per cent of control with 5%; is it strictly lower for N=C1NC(=O)/C(=C/c2ccc(-c3ccc(S(N)(=O)=O)cc3)o2)S1 ?
YES

----------
Please go through the items and note down their kinase still bound, per cent of control.
- target.desc: STK17A (human) (UniProt Q9UEE5)
- Sequence (Q9UEE5 whole entry, looked up): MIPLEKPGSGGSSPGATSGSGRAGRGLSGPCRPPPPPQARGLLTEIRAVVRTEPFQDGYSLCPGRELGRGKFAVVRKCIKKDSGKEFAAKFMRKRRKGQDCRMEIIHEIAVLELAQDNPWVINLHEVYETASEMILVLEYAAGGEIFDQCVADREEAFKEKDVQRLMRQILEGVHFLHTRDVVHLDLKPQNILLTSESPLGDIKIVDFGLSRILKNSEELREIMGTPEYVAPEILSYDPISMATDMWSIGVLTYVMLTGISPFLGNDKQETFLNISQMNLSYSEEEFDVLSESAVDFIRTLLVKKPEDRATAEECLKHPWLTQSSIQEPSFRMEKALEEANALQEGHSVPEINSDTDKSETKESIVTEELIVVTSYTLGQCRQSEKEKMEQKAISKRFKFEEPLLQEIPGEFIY
- test: KINOMEscan competition binding
- assay.context: compound 10.0 µM
For clarity, give the value followed by its unit.

Use these answered entries as a reference point.
[[record]]
smiles_string = "CN1CCN(c2ccc(C(=O)Nc3ncc4c(n3)N(C)c3ccccc3C(=O)N4C)cc2)CC1"
obs_value = "100%"

[[record]]
smiles_string = "CS(=O)(=O)Nc1ccc(-c2ncc(/C=C3\\SC(=N)NC3=O)s2)cc1"
obs_value = "2%"

[[record]]
smiles_string = "COc1cc(N2CCN(C)CC2)ccc1Nc1ncc2c(n1)Nc1ccccc1NC2=O"
obs_value = "62%"

[[record]]
smiles_string = "N=C1NC(=O)/C(=C/c2c[nH]c(=O)c(-c3ccc4cc[nH]c4c3)c2)S1"
obs_value = "5%"


Kindly consider the entry below.
Can you look up the measured kinase still bound, per cent of control of N=C1NC(=O)/C(=C/c2ccc(-c3csc4ccccc34)o2)S1 for me?
0.05%
